Target or system: GSPT1 protein (Homo sapiens)
Construct: degradation of myc and GSPT1 proteins in HL60 cells; endogenous in cells; host or cells: HL60
Sequence (P15170 whole entry): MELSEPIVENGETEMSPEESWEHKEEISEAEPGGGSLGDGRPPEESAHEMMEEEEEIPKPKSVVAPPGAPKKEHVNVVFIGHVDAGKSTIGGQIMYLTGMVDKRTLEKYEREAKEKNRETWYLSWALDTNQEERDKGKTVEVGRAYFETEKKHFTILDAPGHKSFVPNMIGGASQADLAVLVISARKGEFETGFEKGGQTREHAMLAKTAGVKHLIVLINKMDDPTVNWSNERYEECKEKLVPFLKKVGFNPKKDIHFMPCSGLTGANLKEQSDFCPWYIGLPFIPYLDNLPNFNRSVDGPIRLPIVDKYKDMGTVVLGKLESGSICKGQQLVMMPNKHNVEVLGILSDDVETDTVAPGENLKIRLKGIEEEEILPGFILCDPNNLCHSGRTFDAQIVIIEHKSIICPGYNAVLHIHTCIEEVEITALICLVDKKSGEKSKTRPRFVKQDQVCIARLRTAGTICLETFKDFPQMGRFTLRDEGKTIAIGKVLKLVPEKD
Assay notes: GSPT1 protein degradation in HL60 cells (Western blot)
Assay type: cell-based
Test conditions: HL-60, compound at 10 nM, 24 h, gray value relative to Ctrl (DMSO), read-out: Remaining amount of GSPT1 protein (@10 nM/Ctrl)
Each record is given class 1 if its reported remaining GSPT1 protein at 0.01 µM is strictly below 6%. Records at or above 6% are given class 0.

stdin: Confirm or reject: remaining GSPT1 protein at 0.01 µM of COc1cc(-c2cccc(Cl)c2)cnc1N1CCC(CNCc2ccc3c(c2)CN(C2CCC(=O)NC2=O)C3=O)CC1 (stereo not shown) lies strictly below 6%
stdout: class 1

stdin: Dear colleague, could you confirm whether remaining GSPT1 protein at 0.01 µM of N#Cc1cccc(-c2cnc(N3CCC(CNCc4ccc5c(c4)CN(C4CCC(=O)NC4=O)C5=O)CC3)nc2)c1 (stereo not shown) falls below 6%? Thanks.
stdout: class 0

stdin: remaining GSPT1 protein at 0.01 µM strictly < 6% for this compound? `O=C1CC[C@H](N2Cc3cc(CNCC4CCN(c5ncc(-c6cccc(Cl)c6)cc5C(F)(F)F)CC4)ccc3C2=O)C(=O)N1`
stdout: class 1

stdin: Dear reviewer, please state whether N#Cc1cc(-c2cccc(Cl)c2)cnc1N1CCC(CNCc2ccc3c(c2)CN(C2CCC(=O)NC2=O)C3=O)CC1 (stereo not shown) has remaining GSPT1 protein at 0.01 µM strictly beneath 6%.
stdout: class 1

stdin: Input O=C1CCC(N2Cc3cc(CNCC4CCN(c5ncc(-c6cccc(F)c6)cc5F)CC4)ccc3C2=O)C(=O)N1 (stereo not shown) ; condition: remaining GSPT1 protein at 0.01 µM strictly below 6%. Does it hold?
stdout: class 0

stdin: Confirm or reject: remaining GSPT1 protein at 0.01 µM of Cc1cccc(-c2cnc(N3CCC(CNCc4ccc5c(c4)CN(C4CCC(=O)NC4=O)C5=O)CC3)nc2)c1 (stereo not shown) lies strictly below 6%
stdout: class 1
